# System: HOP-62 NSCLC
# assay_name: NCI tumour cell line growth inhibition, 48 h

{"compound": "Cc1ncc(CBr)c(CBr)c1O", "TGI": "> 100 µM"}
{"compound": "CC1=C(C(=O)Nc2ccc(C)cc2)C(c2cccc([N+](=O)[O-])c2)C(C(=O)Nc2ccc(C)cc2)=C(C)N1", "TGI": "89.4 µM"}
{"compound": "CCN(CC)CC(O)c1cc(-c2ccc(Cl)cc2)nc2c(C)c(Cl)ccc12 (stereo not given)", "TGI": "2.96 µM"}
{"compound": "COc1ccc(-c2cc(=O)c3cc(O)ccc3o2)c(OC)c1OC", "TGI": "> 100 µM"}
{"compound": "Cc1c(Cl)c(C)c(Cl)c(O)c1Cl", "TGI": "> 100 µM"}
{"compound": "CC[C@@]1(O)C(=O)OCc2c1cc1n(c2=O)Cc2c-1nc1cc(F)c(C)c3c1c2[C@@H](NC(=O)CO)CC3", "TGI": "2.14 µM"}
{"compound": "Fc1ccc(N=C2C=CC(=Nc3ccc(F)cc3)c3ccccc32)cc1", "TGI": "> 100 µM"}
{"compound": "O=C(CC(=O)c1cccc([N+](=O)[O-])c1)C(=O)Nc1ccccc1", "TGI": "> 100 µM"}
{"compound": "CCOC(=O)CC1Nc2ccccc2C12CCc1c([nH]c3ccccc13)C2C(=O)OCC (stereo not given)", "TGI": "> 100 µM"}
{"compound": "Cn1c(=O)c(Oc2ccc(F)cc2F)cc2cnc(NCC(C)(C)O)nc21", "TGI": "> 25 µM"}

###

# System: HT29 colon
# assay_name: NCI tumour cell line growth inhibition, 48 h
Readings of TGI for the listed molecules

{"molecule": "COc1cc(C(c2ccc3c(c2)OCO3)C2SCCCS2)cc(OC)c1OC (stereo not given)", "TGI": "3.42 µM"}
{"molecule": "Nc1cc(N)c2nc(NCCc3ccc(Cl)c(Cl)c3)cnc2c1", "TGI": "18.8 µM"}
{"molecule": "NC(=O)c1csc(-c2ccc(CO)o2)n1", "TGI": "> 100 µM"}
{"molecule": "CCCCCCCCCCCCc1ccsc1-c1ccc(-c2ccc(-c3sccc3CCCCCCCCCCCC)s2)s1", "TGI": "> 100 µM"}
{"molecule": "Cc1[nH]nc(C(=O)N/N=C/c2ccccc2Cl)c1N=NN(C)C", "TGI": "> 100 µM"}
{"molecule": "CCOC(=O)c1cc([N+](=O)[O-])c(Sc2ncnc3nc[nH]c23)c([N+](=O)[O-])c1", "TGI": "14.5 µM"}
{"molecule": "Fc1ccc(Nc2nc3nonc3nc2Nc2ccc(I)cc2)cc1", "TGI": "10.3 µM"}
{"molecule": "N#Cc1cccc(C2C(=O)c3ccc(C(=O)c4ccc5c(c4)C(=O)N(c4ccc(Oc6ccc(N7C(=O)c8ccc(C(=O)c9ccc%10c(c9)C(=O)N(c9cccc(C#N)c9)C%10=O)cc8C7=O)cc6)cc4)C5=O)cc3C2=O)c1 (stereo not given)", "TGI": "> 100 µM"}
{"molecule": "O=C1OC(c2ccccc2Br)=N/C1=C/c1ccccc1", "TGI": "> 100 µM"}
{"molecule": "Nc1ncnc2c1ccn2-c1cccc(NC(=O)c2ccc(N3CCOCC3)c(C(F)(F)F)c2)c1", "TGI": "12.3 µM"}
{"molecule": "CCN(CC)CCSc1c(C(C)=O)c(=O)n(-c2ccccc2)c(=S)n1-c1ccccc1", "TGI": "37.7 µM"}
{"molecule": "CC(=O)ON=C1C=CC(=C(C#N)c2ccccc2)C=C1", "TGI": "12.9 µM"}
{"molecule": "O=C(/C=C/C=C/c1ccc2c(c1)OCO2)N/N=C\\c1ccc(O)cc1O", "TGI": "26.2 µM"}
{"molecule": "CC(=O)OCC1OC(O[C@H]2C=C[C@@H](C(=O)OCc3ccccc3)n3c(=O)n(-c4ccccc4)c(=O)n32)C(OC(C)=O)C(OC(C)=O)C1OC(C)=O (stereo not given in full)", "TGI": "3.49 µM"}
{"molecule": "COc1nc(NC2OC(CO)C(O)C(O)C2O)c(N)c(=O)[nH]1 (stereo not given)", "TGI": "> 100 µM"}
{"molecule": "O=C(CCCn1ccnc1[N+](=O)[O-])NCCn1cnc([N+](=O)[O-])n1", "TGI": "> 100 µM"}
{"molecule": "C=C1CN2CCc3c([nH]c4ccccc34)C2CC1CC(=O)N(C)C (stereo not given)", "TGI": "> 309 µM"}
{"molecule": "Cc1cc(C)c2c(c1)N(C)c1ncnc(-n3cnc4cc(C)ccc43)c1CC2C (stereo not given)", "TGI": "10.5 µM"}
{"molecule": "CCCCOC(=O)c1c(C)[nH]c(/C=C2\\N=C(c3ccc[nH]3)C=C2OC)c1C", "TGI": "1.72 µM"}
{"molecule": "S=C(S)NCCN1CCNCC1", "TGI": "> 100 µM"}
{"molecule": "C=C(C)[C@H]1CC(=O)[C@@]2(C)C[C@H]3O[C@]3(C)CC/C=C(\\C)CC[C@H]12", "TGI": "> 100 µM"}
{"molecule": "CC(=O)Nc1ccc(C2=N/C(=C\\c3ccc(Cl)cc3)C(=O)O2)cc1", "TGI": "> 100 µM"}
{"molecule": "CC(C)(C)CI", "TGI": "> 10 µM"}
{"molecule": "CN1CCN(c2n[nH]c(=O)c3c2nnn3C2CCCCC2)CC1", "TGI": "> 100 µM"}
{"molecule": "O=C(N/N=C/c1ccncc1)c1ccc(F)cc1", "TGI": "> 40 µM"}
{"molecule": "O=c1/c(=C\\c2ccc(Br)cc2)sc2n1C(c1ccc(Br)cc1)C1=C(N=2)c2ccc3ccccc3c2OCC1 (stereo not given)", "TGI": "> 100 µM"}
{"molecule": "CC(=O)N[C@@H](Cc1ccc(OP(=O)(O)O)cc1)C(=O)N[C@H]1CCC(=O)N2CCC[C@@H](C(=O)NC3CCc4ccccc43)N2C1=O (stereo not given in full)", "TGI": "> 25 µM"}
{"molecule": "CC1CC(=O)Nc2ccccc2N1C(=O)C1CC1 (stereo not given)", "TGI": "> 100 µM"}
{"molecule": "CC1CCc2c(sc3ncnc(N/N=C/c4ccc(Cl)cc4)c23)C1 (stereo not given)", "TGI": "> 100 µM"}
{"molecule": "CC1(C)C(CC(=O)O)CCCC1CC(=O)O (stereo not given)", "TGI": "> 100 µM"}
{"molecule": "COc1ccc([C@@H]2OC(=O)C3C2C(=O)O[C@H]3c2ccc(OC)cc2)cc1 (stereo not given in full)", "TGI": "> 100 µM"}
{"molecule": "COc1cc(N2CCC(N)CC2)ccc1Nc1ncc(Cl)c(-c2c[nH]c3ccccc23)n1", "TGI": "1.43 µM"}
{"molecule": "COc1ccc(/C=C/C(=O)/C=C(O)/C=C/c2ccc(OC)c(OC)c2)cc1OC", "TGI": "22.3 µM"}
{"molecule": "CC(C)=CCc1cc(/C=C/C(=O)O)cc(CC=C(C)C)c1O", "TGI": "> 100 µM"}
{"molecule": "Cc1cc(C)nc(NS(=O)(=O)c2ccc(NC(=O)COC(=O)c3cccc4c(=O)c5ccccc5[nH]c34)cc2)n1", "TGI": "> 100 µM"}
{"molecule": "O=C(CC(=O)c1cccc([N+](=O)[O-])c1)C(=O)Nc1ccccc1", "TGI": "> 100 µM"}
{"molecule": "O=C(CC(=O)N1N=C(N(c2ccccc2)c2ccccc2)CC1c1ccccc1)Nc1cccc(Cl)c1 (stereo not given)", "TGI": "> 100 µM"}
{"molecule": "Nc1n[nH]c2ccc([C@@H]3Nc4ccc5cn[nH]c5c4[C@H]4C5CCC(C5)[C@@H]34)cc12 (stereo not given in full)", "TGI": "> 100 µM"}
{"molecule": "COc1ccc(CNc2nc3cc(C(F)(F)F)ccc3nc2C(=O)O)cc1", "TGI": "73.9 µM"}
{"molecule": "Cc1cccc(N=N/C(=N\\NC(=O)c2cc(Cl)ccc2O)c2ccc(N(CCC#N)CCC#N)cc2C)c1", "TGI": "74 µM"}
